Source: patent US4070470A

Field: inhibition at 1 µM. Provide a value for each of the compounds that follow.
# Test system: collagen-induced aggregation in rabbit platelet
# ASSAY_DETAILS: Inhibition effect on collagen-induced aggregation in rabbit platelet
# Format: cell-based
# RUN_CONDITIONS: Oryctolagus cuniculus, Platelet, 10^-6 M test compound solution; rabbit platelet (PRP)
Use % as the unit, but write only the number.

collagen-induced aggregation in rabbit platelet inhibition at 1 µM of CCOC(=O)CCCCCCOc1ccc2c(c1)CCC(=O)N2 is 6

collagen-induced aggregation in rabbit platelet inhibition at 1 µM of CCOC(=O)C(C)Oc1ccc2c(c1)NC(=O)CC2 (centres unmarked) is 8

collagen-induced aggregation in rabbit platelet inhibition at 1 µM of CCOC(=O)C(C)Oc1ccc2[nH]c(=O)ccc2c1 (centres unmarked) is -6

collagen-induced aggregation in rabbit platelet inhibition at 1 µM of CCOC(=O)C(C)Oc1ccc2c(c1)CCC(=O)N2C (centres unmarked) is 0

collagen-induced aggregation in rabbit platelet inhibition at 1 µM of CC(C)OC(=O)C(C)Oc1ccc2[nH]c(=O)ccc2c1 (centres unmarked) is 3

---

# Tested on: ADP-induced aggregation in rabbit platelet
# ASSAY_DETAILS: Inhibition effect on ADP-induced aggregation in rabbit platelet
# Assay type: cell-based
# RUN_CONDITIONS: Oryctolagus cuniculus, Platelet, 10^-4 M test compound solution; rabbit platelet (PRP)
Please use T whenever inhibition at 100 µM is not below 10%, and F whenever it is.

Q. I'd appreciate it if you could say whether CCOC(=O)CCCOc1cccc2c1CCC(=O)N2 has inhibition at 100 µM at least equal to 10%.
A. T

Q. I'd appreciate it if you could say whether CCOC(=O)C(C)Oc1ccc2c(c1)NC(=O)CC2 (centres unmarked) has inhibition at 100 µM at least equal to 10%.
A. F

Q. I'd appreciate it if you could say whether O=C(O)CCCCCCOc1ccc2c(c1)CCC(=O)N2 has inhibition at 100 µM at least equal to 10%.
A. T

Q. I'd appreciate it if you could say whether CC(C)OC(=O)C(C)Oc1ccc2[nH]c(=O)ccc2c1 (centres unmarked) has inhibition at 100 µM at least equal to 10%.
A. T

Q. I'd appreciate it if you could say whether CCCCCOC(=O)CCCOc1ccc2c(c1)CCC(=O)N2 has inhibition at 100 µM at least equal to 10%.
A. T
